Each item that follows carries a reported ELISA_avg.
Target: T1, BCMA (Homo sapiens (Human), UniProt Q02223 1-54, limits assumed)
T1 sequence: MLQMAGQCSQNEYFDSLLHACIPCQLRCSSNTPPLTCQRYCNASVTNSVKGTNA
Test: ELISA, format not described
Design: unit not given here
# respond with the number and nothing more

Binder	ELISA_avg
D-domain SEQ ID NO: 326 (designed binder) MGSWHIFKDNLATIKAFLEALGGSEAELAVFEWYIAKFEEELQGYKGKGNPEVEALRKEAAAIRDELQAYRHN	3.47
D-domain SEQ ID NO: 66 (designed binder) MGSWIEFQERLDAIFYRLHALGGSEAELAAFEKEIAAFESELQAYKGKGNPEVEDLRDAAATIRRQLQAYRHN	18.6
D-domain SEQ ID NO: 150 (designed binder) MGSWFEFQNRLQAILFRLRALGGSEAELAAFEKEIAAFESELQAYKGKGNPEVENLRDKAAYIRLMLQAYRHN	5.39
D-domain SEQ ID NO: 100 (designed binder) MGSWVEFYHRLEAIRYRLSALGGSEAELAAFEKEIAAFESELQAYKGKGNPEVEELRYVAAVIRYRLQAYRHN	7.8

Inquiry: Suppose we examine the binder D-domain SEQ ID NO: 271 (designed binder) MGSWNEFKYHLAVIKFYLEALGGSEAELAHFETWIAEFEYELQKYKGKGNPEVEALRKEAAAIRDELQAYRHN ; what ELISA_avg value has been reported?
Reply text: 13.7

Inquiry: Subsequent entry: D-domain SEQ ID NO: 310 (designed binder) MGSWTYFKYGLALIKYRLEALGGSEAELADFEEWIAQFEVSLQHYKGKGNPEVEALRKEAAAIRDELQAYRHN
Reply text: 15.2

Inquiry: Subsequent entry: D-domain SEQ ID NO: 301 (designed binder) MGSWIYFKYGLAHIKTRLEALGGSEAELADFEQWIAEFEKMLQDYKGKGNPEVEALRKEAAAIRDELQAYRHN
Reply text: 21.1

Inquiry: Subsequent entry: D-domain SEQ ID NO: 294 (designed binder) MGSWYKFKHKLAVIKYMLEALGGSEAELAWFEEWIAEFEVTLQDYKGKGNPEVEALRKEAAAIRDELQAYRHN
Reply text: 4.54

Inquiry: Subsequent entry: D-domain SEQ ID NO: 115 (designed binder) MGSWNEFSGRLTAIKDRLAALGGSEAELAAFEKEIAAFESELQAYKGKGNPEVEELRFRAAVIRLWLQAYRHN
Reply text: 3.39

Inquiry: Subsequent entry: D-domain SEQ ID NO: 87 (designed binder) MGSWVEFQGRLGAIHERLQALGGSEAELAAFEKEIAAFESELQAYKGKGNPEVEELRYSAALIRVFLQAYRHN
Reply text: 3.83

Inquiry: Subsequent entry: D-domain SEQ ID NO: 75 (designed binder) MGSWVEFQSRLEAIATRLRALGGSEAELAAFEKEIAAFESELQAYKGKGNPEVEELRWQAAWIRMMLQAYRHN
Reply text: 18

Inquiry: Subsequent entry: D-domain SEQ ID NO: 103 (designed binder) MGSWEEFSERLEAISIRLRALGGSEAELAAFEKEIAAFESELQAYKGKGNPEVEELRVSAAIIRVWLQAYRHN
Reply text: 11.3

Inquiry: Subsequent entry: D-domain SEQ ID NO: 284 (designed binder) MGSWYQFKYHLAIIKWYLEALGGSEAELAGFENYIATFEQELQQYKGKGNPEVEALRKEAAAIRDELQAYRHN
Reply text: 18.4
